assay: Antioxidant activity in PBS buffer assessed as NO scavenging activity after 90 mins in presence of sodium nitroprusside by Griess assay; type: functional
Endpoint Name: IC50 (µg/mL)

Consider the worked cases shown below.
# Compound, Endpoint Name, Readout Number
measured = [
    ("O=C(c1ccccc1)N1N=C(c2cccnc2)CC1c1c(-c2ccccc2)[nH]c2ccccc12 (stereo not given)", "IC50", 50.33),
    ("c1ccc(-c2[nH]c3ccccc3c2C2CC(c3cccnc3)=NO2)cc1 (stereo not given)", "IC50", 116.7),
    ("c1ccc(-c2[nH]c3ccccc3c2C2CC(c3ccncc3)=NN2)cc1 (stereo not given)", "IC50", 20.99),
]

A: O=C(c1ccccc1)N1N=C(c2ccncc2)CC1c1c(-c2ccccc2)[nH]c2ccccc12 (stereo not given)
B: c1ccc(-c2[nH]c3ccccc3c2C2CC(c3cccs3)=NO2)cc1 (stereo not given)
Of A and B , whose reported IC50 is numerically smaller? In your reply, give the label of the chosen option.
A
(A: 52.54 µg/mL, B: 233.4 µg/mL)

* * *

assay: Inhibition of soybean 15-LOX using arachidonic acid or linoleic acid as substrate preincubated with enzyme followed by substrate addition up to 5 mins by chromogenic method; design: species or system Glycine max
pIC50: −log10 of the molar value.
Endpoint Name: pIC50

Known pIC50 results, listed for orientation:
# Molecule, Endpoint Name, Readout Number
data = [
    ("c1ccc(-c2[nH]c3ccccc3c2C2CC(c3cccs3)=NN2)cc1 (configuration not stated)", "pIC50", 5.03),
    ("CC(=O)N1N=C(c2ccncc2)CC1c1c(-c2ccccc2)[nH]c2ccccc12 (configuration not stated)", "pIC50", 5.06),
    ("c1ccc(-c2[nH]c3ccccc3c2C2CC(c3ccncc3)=NO2)cc1 (configuration not stated)", "pIC50", 5.31),
]

P: c1ccc(-c2[nH]c3ccccc3c2C2CC(c3cccnc3)=NO2)cc1 (configuration not stated)
Q: c1ccc(-c2[nH]c3ccccc3c2C2CC(c3cccnc3)=NN2)cc1 (configuration not stated)
For P and Q , which recorded pIC50 is lower? Please identify the chosen entry by its label.
P

I: c1ccc(-c2[nH]c3ccccc3c2C2CC(c3cccs3)=NO2)cc1 (configuration not stated)
II: CC(=O)N1N=C(c2cccnc2)CC1c1c(-c2ccccc2)[nH]c2ccccc12 (configuration not stated)
Field: lower pIC50 | Options: I / II In your reply, give the label of the chosen option.
I

* * *

test: Antioxidant activity in PBS buffer assessed as NO scavenging activity after 90 mins in presence of sodium nitroprusside by Griess assay; type: functional
Endpoint Name: IC50 (µg/mL)

Solved cases below.
# Compound, IC50 (µg/mL)
data = [
    ("c1ccc(-c2[nH]c3ccccc3c2C2CC(c3cccs3)=NN2)cc1 (configuration not stated)", 24.04),
    ("CN1N=C(c2ccncc2)CC1c1c(-c2ccccc2)[nH]c2ccccc12 (configuration not stated)", 37.1),
    ("O=C1O[C@H]([C@@H](O)CO)C(O)=C1O", 24.5),
    ("CC(=O)N1N=C(c2cccnc2)CC1c1c(-c2ccccc2)[nH]c2ccccc12 (configuration not stated)", 29.8),
    ("c1ccc(-c2[nH]c3ccccc3c2C2CC(c3cccnc3)=NN2)cc1 (configuration not stated)", 35.01),
]

P: CC(=O)N1N=C(c2ccncc2)CC1c1c(-c2ccccc2)[nH]c2ccccc12 (configuration not stated)
Q: c1ccc(-c2[nH]c3ccccc3c2C2CC(c3ccncc3)=NO2)cc1 (configuration not stated)
Decide: P or Q , by lowest recorded IC50. // respond with label for picked entry
P
(P: 29.14 µg/mL, Q: 70.5 µg/mL)

* * *

experiment: Antioxidant activity assessed as inhibition of DPPH radical formation after 30 mins; format: functional
Endpoint Name: IC50 (mg/L)

Reference set (5 entries):
# Compound, Readout Units, IC50
data = [
    ("CC(=O)N1N=C(c2cccnc2)CC1c1c(-c2ccccc2)[nH]c2ccccc12 (configuration not stated)", "mg/L", 37.97),
    ("c1ccc(-c2[nH]c3ccccc3c2C2CC(c3cccnc3)=NO2)cc1 (configuration not stated)", "mg/L", 60.7),
    ("CC(=O)N1N=C(c2ccncc2)CC1c1c(-c2ccccc2)[nH]c2ccccc12 (configuration not stated)", "mg/L", 98.54),
    ("c1ccc(-c2[nH]c3ccccc3c2C2CC(c3cccs3)=NN2)cc1 (configuration not stated)", "mg/L", 18.3),
    ("CN1N=C(c2ccncc2)CC1c1c(-c2ccccc2)[nH]c2ccccc12 (configuration not stated)", "mg/L", 33.1),
]

P: c1ccc(-c2[nH]c3ccccc3c2C2CC(c3cccnc3)=NN2)cc1 (configuration not stated)
Q: O=C(c1ccccc1)N1N=C(c2cccnc2)CC1c1c(-c2ccccc2)[nH]c2ccccc12 (configuration not stated)
R: c1ccc(-c2[nH]c3ccccc3c2C2CC(c3cccs3)=NO2)cc1 (configuration not stated)
Please give the order of these compounds when sorted by IC50, largest value leading. Form field (ranking): labels in requested order.
R, Q, P

* * *

assay: Inhibition of soybean 15-LOX using arachidonic acid or linoleic acid as substrate preincubated with enzyme followed by substrate addition up to 5 mins by chromogenic method; set-up: species or system Glycine max
pIC50: −log10 of the molar value.
Endpoint Name: pIC50

# Compound, Readout Number
measured = [
    ("O=C(c1ccccc1)N1N=C(c2ccncc2)CC1c1c(-c2ccccc2)[nH]c2ccccc12 (stereo not given)", 5.29),
    ("CN1N=C(c2ccncc2)CC1c1c(-c2ccccc2)[nH]c2ccccc12 (stereo not given)", 5.03),
    ("O=C(c1ccccc1)N1N=C(c2cccnc2)CC1c1c(-c2ccccc2)[nH]c2ccccc12 (stereo not given)", 5.14),
    ("O=c1c(O)c(-c2ccc(O)c(O)c2)oc2cc(O)cc(O)c12", 5.16),
    ("c1ccc(-c2[nH]c3ccccc3c2C2CC(c3ccncc3)=NN2)cc1 (stereo not given)", 5.18),
]

* * *

test: Antioxidant activity assessed as inhibition of DPPH radical formation after 30 mins; assay type: functional
Endpoint Name: IC50 (µg/mL)

a: O=C(c1ccccc1)N1N=C(c2ccncc2)CC1c1c(-c2ccccc2)[nH]c2ccccc12 (centres undefined)
b: O=C1O[C@H]([C@@H](O)CO)C(O)=C1O
c: c1ccc(-c2[nH]c3ccccc3c2C2CC(c3ccncc3)=NN2)cc1 (centres undefined)
d: c1ccc(-c2[nH]c3ccccc3c2C2CC(c3ccncc3)=NO2)cc1 (centres undefined)
Sort the compounds on IC50; start with the lowest figure. # list labels per requested ordering
c, b, d, a
(c: 15.83 µg/mL, b: 23.4 µg/mL, d: 59.94 µg/mL, a: 107.32 µg/mL)

Source of measurements: ChEMBL document CHEMBL4145485
